- Target Or Test System: FKBP (Homo sapiens, UniProt P62942)
- Sequence (P62942 whole entry): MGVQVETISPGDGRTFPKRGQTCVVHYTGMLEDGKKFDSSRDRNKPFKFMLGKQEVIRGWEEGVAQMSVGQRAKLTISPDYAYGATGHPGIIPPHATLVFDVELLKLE
- Test Details: FKBP competitive binding assay based on fluorescence polarization (FP)
- Conditions Used: competitive FP binding, methods of Example 2.5; read-out: FKBP IC50
Examples of molecules with documented pIC50 follow.
Convention used: pIC50 is expressed as -log10 of the molar concentration.

Take a look at these entries with their results.
Molecule	Target Or Test System	pIC50
CO[C@@H]1C[C@H](C[C@@H](C)[C@@H]2CC(=O)[C@H](C)/C=C(\C)[C@H](O)[C@@H](OC)C(=O)[C@H](C)C[C@H](C)/C=C/C=C/C=C(\C)[C@H](N(C)S(C)(=O)=O)C[C@@H]3CC[C@@H](C)[C@@](O)(O3)C(=O)C(=O)N3CCCC[C@H]3C(=O)O2)CC[C@H]1O [28-epi-7R-N-Me-methanesulfonamide]	FKBP (Homo sapiens, UniProt P62942)	7.43
CO[C@@H]1C[C@H](C[C@@H](C)[C@@H]2CC(=O)[C@H](C)/C=C(\C)[C@H](O)[C@@H](OC)C(=O)[C@H](C)C[C@H](C)/C=C/C=C/C=C(\C)[C@H](N(C)C(=O)Oc3ccc(C)cc3)C[C@@H]3CC[C@@H](C)[C@@](O)(O3)C(=O)C(=O)N3CCCC[C@H]3C(=O)O2)CC[C@H]1O [28-epi-7R-N-Me-p-tolylcarbamate]	FKBP (Homo sapiens, UniProt P62942)	6.92
CCOC(=O)N(C)C1CC2CCC(C)C(O)(O2)C(=O)C(=O)N2CCCCC2C(=O)OC(C(C)CC2CCC(O)C(OC)C2)CC(=O)C(C)C=C(C)C(O)C(OC)C(=O)C(C)CC(C)C=CC=CC=C1C (single isomer, unassigned) [28-epi-7S-N-methyl-ethylcarbamate]	FKBP (Homo sapiens, UniProt P62942)	7.52

Ask: // Input: CO[C@@H]1C[C@H](C[C@@H](C)[C@@H]2CC(=O)[C@H](C)/C=C(\C)[C@H](O)[C@@H](OC)C(=O)[C@H](C)C[C@H](C)/C=C/C=C/C=C(\C)[C@H](NS(=O)(=O)N(C)c3ccccc3)C[C@@H]3CC[C@@H](C)[C@@](O)(O3)C(=O)C(=O)N3CCCC[C@H]3C(=O)O2)CC[C@H]1O [28-epi-7R-methylphenylsulfamide] . Output its pIC50 only.
Reply: 7.42

Ask: // Input: CO[C@@H]1C[C@H](C[C@@H](C)[C@@H]2CC(=O)[C@H](C)/C=C(\C)[C@H](O)[C@@H](OC)C(=O)[C@H](C)C[C@H](C)/C=C/C=C/C=C(\C)[C@H](N(C)S(=O)(=O)N(C)c3ccccc3)C[C@@H]3CC[C@@H](C)[C@@](O)(O3)C(=O)C(=O)N3CCCC[C@H]3C(=O)O2)CC[C@H]1O [28-epi-7R-N-Me-methylphenylsulfamide] . Output its pIC50 only.
Reply: 7.13

Ask: // Input: COc1ccc([C@H]2C[C@@H]3CC[C@@H](C)[C@@](O)(O3)C(=O)C(=O)N3CCCC[C@H]3C(=O)O[C@H]([C@H](C)C[C@@H]3CC[C@@H](O)[C@H](OC)C3)CC(=O)[C@H](C)/C=C(\C)[C@H](O)[C@@H](OC)C(=O)[C@H](C)C[C@H](C)/C=C/C=C/C=C/2C)c(OC)c1 [28-epi-7S-dimethoxyphenyl] . Output its pIC50 only.
Reply: 7.51
